These measurements were taken from PubChem BioAssay.

Answer each item with its documented fraction signal.
- assayProcedure: IRF3 reporter activation in THP-1 macrophages, cell-based, PMA-stimulated THP-1, luminescence (AID 1053176)
- measurementSetup: PMA-differentiated THP-1, IRF3 reporter luminescence; active compounds read high
Calls of active or inactive are those of the source. No rule for the calls is given here.

Asked: Complete the entry with fraction signal for Clc1ccc(CNc2nccc(-c3cnn4ncccc34)n2)cc1
Given back: 0 (inactive)

Asked: Write down fraction signal measured for item Cn1cc(C2=C(c3c4n(c5ccccc35)CC(CN)C4)C(=O)NC2=O)c2ccccc21 (centres undefined)
Given back: -0.005 (inactive)

Asked: Report fraction signal for CN(c1ccc(NC(=O)NCCN2CCOCC2)cc1)c1ccnc(Nc2ccc(CS(C)(=O)=O)cc2)n1
Given back: -0.0035 (inactive)

Asked: Could you please provide reported fraction signal for NS(=O)(=O)c1ccc(N=Nc2c(O)[nH]c3ccc(C(=O)NCc4ccncc4)cc23)cc1 ? Thanks!
Given back: -0.001 (inactive)

Asked: Assign fraction signal to the following record: NS(=O)(=O)c1ccc(Nc2ncc(-c3ccccc3)o2)cc1
Given back: -0.0035 (inactive)

Asked: Provide measured fraction signal value, entry: COC(=O)c1cncc(/C=C/c2c(C)cc(O)cc2C)c1
Given back: -0.0065 (inactive)

Asked: Complete the entry with fraction signal for CNCCCn1cc(C2=C(c3cn(C)c4ccccc34)C(=O)NC2=O)c2ccccc21
Given back: -0.0095 (inactive)

Asked: Identify measured fraction signal associated with Cn1c(=O)c(Oc2ccc(F)cc2F)cc2cnc(NC3CCC(O)CC3)nc21 (centres undefined)
Given back: -0.0095 (inactive)

Asked: Give a short answer stating reported fraction signal for Cn1cc(C2=C(c3c4n(c5ccccc35)CCC(CN)C4)C(=O)NC2=O)c2ccccc21 (centres undefined) .
Given back: -0.001 (inactive)

Asked: Look up and state reported fraction signal for Cn1cc(C2=C(c3c4n(c5ccccc35)CCNC4)C(=O)NC2=O)c2ccccc21
Given back: -0.007 (inactive)

Asked: Note fraction signal for the compound shown: N#Cc1c(NC(=O)c2ccc(F)cc2)sc2c1CCCC2
Given back: -0.006 (inactive)

Asked: Name the recorded fraction signal of the item O=C1NC(O)C(c2c[nH]c3ccccc23)=C1c1c[nH]c2ccccc12 (centres undefined) in your answer.
Given back: 0.001 (inactive)

Asked: Identify measured fraction signal associated with CN1CCC(n2cnc(-c3ccc(F)cc3)c2-c2ccnc(NCCO)n2)CC1
Given back: -0.0015 (inactive)

Asked: Could you please provide reported fraction signal for O=C1NC(=NCc2ccccn2)SC1=Cc1ccc2ncccc2c1 ? Thanks!
Given back: 0.01 (inactive)

====

- assayProcedure: inhibition of endothelial tube formation, primary screen, imaging, VEGF stimulated, CD31 staining, tube area, NPC library (AID 1117340)
- measurementSetup: VEGF-stimulated ADSC/ECFC co-culture, at 10 µM
Activity calls are given as the source filed them.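 How the source made its calls: active means compound that reduces growth-factor-driven endothelial tube area in a mixed cell culture, no cutoff stated; inactive means the rest.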
Parameter call: string, one of active, inactive

Asked: What was the test verdict on CC1(S(=O)(=O)O)CC(=O)c2ccccc2C1=O (stereo not drawn) ?
Given back: active

Asked: # lookup: test call for CC1(C)OC[C@@H](COC(=O)CCc2ccc(OC[C@@H](O)CNCCNC(=O)N3CCOCC3)cc2)O1
Given back: inactive

Asked: Could you check what this test reported for Cc1ncc(COP(=O)(O)O)c(C=O)c1O ?
Given back: inactive

Asked: Please indicate how the test categorized CCCCC/C(C=O)=C\c1ccccc1 .
Given back: inactive

Asked: Short answer needed: outcome of this test for CC(=O)O[C@H]1C[C@@H]2CC[C@H]3[C@H]4C[C@H]([N+]5(C)CCCCC5)[C@@H](OC(C)=O)[C@@]4(C)CC[C@@H]3[C@@]2(C)C[C@H]1[N+]1(C)CCCCC1 ?
Given back: inactive

Asked: What was the test verdict on NCC(=O)CCC(=O)O ?
Given back: inactive

Asked: What did this assay record as the result for COc1cc(C=C2CCC/C(=C\c3ccc(O)c(OC)c3)C2=O)ccc1O ?
Given back: active

Asked: // outcome(item) with item = CN(C)c1cc(NC(=O)CNC(C)(C)C)c(O)c2c1C[C@@H]1C[C@H]3[C@H](N(C)C)C(=O)C(C(N)=O)=C(O)[C@@]3(O)C(=O)C1=C2O
Given back: inactive

Asked: For COc1ccc2nc(SCc3ncc(C)c(OC)c3C)[nH]c2c1 , what call appears in the results of this test?
Given back: inactive

Asked: Please indicate how the test categorized CCOC(=O)C1=C(C)NC(C)=C(C(=O)OC)C1c1cccc([N+](=O)[O-])c1 (stereo not drawn) .
Given back: inactive

Asked: What is the recorded call for this molecule in the test? NC(=O)C[C@H](N)C(=O)O
Given back: inactive

Asked: Could you please tell me the result logged for COC(=O)c1cc(Cl)ccc1NS(=O)(=O)C(F)(F)F in this assay?
Given back: inactive

Asked: // param item: Cc1cnc(NS(=O)(=O)c2ccc(N)cc2)nc1 ; yields the recorded call
Given back: inactive

Asked: # fetch the recorded call for NCC(=O)O here
Given back: inactive

Asked: For C[C@]12CCC(=O)C=C1CC[C@@H]1[C@@H]2[C@@H](O)C[C@@]2(C)[C@H]1CC[C@]2(O)C(=O)CO , what call appears in the results of this test?
Given back: inactive

Asked: Identify the outcome logged in this assay for the molecule shown: NC(=S)N=Nc1ccc(NN=C(N)N)cc1
Given back: inactive

Asked: Can you look up the reported call for Cc1ccc(O)c(-n2nc3ccccc3n2)c1 for me?
Given back: inactive

Asked: Please share the test call associated with CNC(=O)c1c(I)c(NC(=O)CCCCC(=O)Nc2c(I)c(C(=O)O)c(I)c(C(=O)NC)c2I)c(I)c(C(=O)O)c1I .
Given back: inactive

====

Please go through the items and note down their insulin secretion stimulation.
- assayProcedure: stimulators of insulin release from INS-1E, primary screen, cell-based, 5 mM glucose, NPC library (AID 1117329); also: reference of the scale not given here
- measurementSetup: rat INS-1E insulin secretion, at 10 µM, active compounds read high
Activity calls are given as the source filed them.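 How the source made its calls: active means compound raises insulin release from rat beta cells at 5 mM glucose, no numeric limit stated; inactive means the rest.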

Asked: Query insulin secretion stimulation for CCOC(=O)C1=C(COCCN)NC(C)=C(C(=O)OC)C1c1ccccc1Cl (stereo not given)
Given back: 11.6% (inactive)

Asked: Input Cc1ccc(S(=O)(=O)NC(=O)NC2CCCC2)cc1 , output reported insulin secretion stimulation.
Given back: 15.2% (inactive)

Asked: Give me measured insulin secretion stimulation, please, for this molecule: C=CCNCCCCCC[N+](C)(C)C
Given back: -0.9% (inactive)

Asked: For the molecule Oc1ccccc1C=NCc1ccccc1 , report insulin secretion stimulation.
Given back: -2.2% (inactive)

Asked: Name the recorded insulin secretion stimulation of the molecule listed here: Cc1onc(-c2ccccc2Cl)c1C(=O)Cl
Given back: 0.3% (inactive)

Asked: Supply reported insulin secretion stimulation belonging to this molecule: C[N+]1(CC2COC(c3ccccc3)(c3ccccc3)O2)CCCCC1 (stereo not given)
Given back: 6.4% (inactive)

Asked: Fill in insulin secretion stimulation for record CCCCCCCCCCCCCCCC[N+](C)(C)Cc1ccccc1
Given back: 1% (inactive)

Asked: Kindly indicate its recorded insulin secretion stimulation. Item: CCCCCN=C(N)N/N=C/c1c[nH]c2ccc(OC)cc12
Given back: 57.5% (active)

Asked: Assign insulin secretion stimulation to the following record: COC(=O)C1=C(C)NC(COC(N)=O)=C(C(=O)OC(C)C)C1c1cccc(Cl)c1Cl (stereo not given)
Given back: 8.1% (inactive)

Asked: Supply reported insulin secretion stimulation belonging to this molecule: N[C@@H](C(=O)N[C@@H]1C(=O)N2C(C(=O)O)=C(Cl)CS[C@H]12)c1ccccc1
Given back: 1.9% (inactive)

Asked: Supply insulin secretion stimulation value. Item: Cc1ccc2c(Br)cc(Br)c(O)c2n1
Given back: 2.4% (inactive)

Asked: Dear colleague, please send me the reported insulin secretion stimulation for CCN(CC)S(=O)(=O)c1ccc(C(=O)O)cc1 when you can.
Given back: -2.1% (inactive)

Asked: Input CCCCCCCCCCCCCCCCCC(=O)O , output reported insulin secretion stimulation.
Given back: -1.2% (inactive)

Asked: Could you please provide reported insulin secretion stimulation for N[C@H](C(=O)O)[C@@H](O)c1ccc(O)c(O)c1 ? Thanks!
Given back: 11.2% (inactive)

Asked: For Cc1ccccc1C(=O)N1CC/C(=N\OS(=O)(=O)O)c2ccc(Cl)cc21 , write its insulin secretion stimulation.
Given back: 3.05% (inactive)

Asked: Note insulin secretion stimulation for the molecule shown: Cc1ccc(O)c([C@H](CCN(C(C)C)C(C)C)c2ccccc2)c1
Given back: 30.8% (active)

Asked: // fetch insulin secretion stimulation given entry Cc1ccccc1N1CCN(CCc2nnc3n2CCCC3)CC1
Given back: 0.9% (inactive)

Asked: Fill in reported insulin secretion stimulation for this entry: CC1(C)OC[C@@H](COC(=O)CCc2ccc(OC[C@@H](O)CNCCNC(=O)N3CCOCC3)cc2)O1
Given back: 4% (inactive)

Asked: Please give measured insulin secretion stimulation of the following entry: O=c1[nH]c(=O)n([C@H]2O[C@H](CO)[C@@H](O)[C@@H]2O)cc1/C=C\Br
Given back: 3.5% (inactive)

Asked: For the molecule O=C1Cc2cc(Cl)ccc2N1 , report insulin secretion stimulation.
Given back: 1% (inactive)

Asked: For the molecule O=C(O)CNC(=O)c1ccccc1I , give its measured insulin secretion stimulation value.
Given back: 0.3% (inactive)

Asked: Tell me insulin secretion stimulation reported for CC(C)(C)C(=O)OCOC(=O)C1N2C(=O)CC2S(=O)(=O)C1(C)C (stereo not given)
Given back: 1.4% (inactive)

Asked: Provide insulin secretion stimulation value for the following molecule: OCCCc1ccccc1
Given back: 3.2% (inactive)

Asked: For the molecule O=C(c1ccccc1)c1ccccc1 , report insulin secretion stimulation.
Given back: -0.6% (inactive)

Asked: Using the record for COC(=O)CCC[N+](C)(C)C , state its measured insulin secretion stimulation.
Given back: -6.3% (inactive)

Asked: Output measured insulin secretion stimulation for this item: Cn1cc(C(=O)[C@@H]2CCc3nc[nH]c3C2)c2ccccc21
Given back: 5.1% (inactive)

Asked: In one line, give reported insulin secretion stimulation of the entry c1ccc(OCc2ccc(CCCN3CCOCC3)cc2)cc1 .
Given back: 4.5% (inactive)

Asked: Give insulin secretion stimulation for O=C1c2ccccc2CCc2ccccc21
Given back: 2.7% (inactive)

Asked: Output measured insulin secretion stimulation for this item: N#C/C(=C1\SCC(c2ccccc2Cl)S1)n1ccnc1 (stereo not given)
Given back: -2.4% (inactive)

Asked: Please report the measured insulin secretion stimulation for O=C(CCC1CCN(Cc2ccccc2)CC1)c1ccc2c(c1)NCCCC2
Given back: 4.2% (inactive)
